Biological target: Mitogen-activated protein kinase kinase kinase kinase 1 (Homo sapiens, UniProt Q92918)
Sequence (Q92918 whole entry, the tested form may be a part): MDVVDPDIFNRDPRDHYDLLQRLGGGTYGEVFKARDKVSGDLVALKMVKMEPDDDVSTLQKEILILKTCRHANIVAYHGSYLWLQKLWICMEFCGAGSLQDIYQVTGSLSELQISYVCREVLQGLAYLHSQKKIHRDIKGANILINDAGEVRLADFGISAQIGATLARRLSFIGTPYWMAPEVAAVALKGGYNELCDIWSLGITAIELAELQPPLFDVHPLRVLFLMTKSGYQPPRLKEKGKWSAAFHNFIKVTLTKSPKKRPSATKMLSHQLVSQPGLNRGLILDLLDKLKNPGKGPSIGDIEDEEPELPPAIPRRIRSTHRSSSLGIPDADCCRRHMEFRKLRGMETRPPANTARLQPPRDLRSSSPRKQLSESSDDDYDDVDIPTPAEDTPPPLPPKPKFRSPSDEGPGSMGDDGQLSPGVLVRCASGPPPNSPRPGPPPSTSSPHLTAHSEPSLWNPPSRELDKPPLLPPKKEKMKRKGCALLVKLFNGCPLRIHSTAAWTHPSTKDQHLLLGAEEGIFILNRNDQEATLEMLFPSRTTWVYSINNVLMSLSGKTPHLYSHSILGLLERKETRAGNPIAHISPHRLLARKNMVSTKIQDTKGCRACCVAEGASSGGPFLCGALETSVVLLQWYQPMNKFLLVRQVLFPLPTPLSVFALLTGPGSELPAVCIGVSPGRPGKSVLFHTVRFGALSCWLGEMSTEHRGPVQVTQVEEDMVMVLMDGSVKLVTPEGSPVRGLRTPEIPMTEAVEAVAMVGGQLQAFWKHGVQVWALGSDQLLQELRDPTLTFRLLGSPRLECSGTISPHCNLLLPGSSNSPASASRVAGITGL
Assay: Binding affinity to recombinant N-terminal His-FLAG-GST-tagged MAP4K1 (unknown origin) (1 to 346 residues) expressed in baculovirus infected Sf9 insect cells incubated for 1 hr by TR-FRET assay
Known Kd of a selection of compounds
Only the number, expressed in nM, is required.

compound_smiles	recorded_metric	unit_label	recorded_number
CO[C@@H]1[C@H](NCCOCCOCCOCCNC(=O)CCC2=[N+]3C(=Cc4c(C)cc(C)n4[B-]3(F)F)C=C2)C[C@H]2O[C@]1(C)n1c3ccccc3c3c4c(c5c6ccccc6n2c5c31)C(=O)NC4	Kd	nM	17

Please find the next compound below.
Form field: reported Kd of `CO[C@@H]1[C@H](N(C)CCOCCOCCOCCNC(=O)CCC2=[N+]3C(=Cc4c(C)cc(C)n4[B-]3(F)F)C=C2)C[C@H]2O[C@]1(C)n1c3ccccc3c3c4c(c5c6ccccc6n2c5c31)C(=O)NC4` 24

====

Reported pKd by item:
Target: UniProtKB P09619
Test: Binding affinity to recombinant human N-terminal his-tagged PDGFRB (558 to 1106 residues) expressed in baculovirus expression system incubated for 1 hr by TR-FRET assay
Just so you know, pKd here is -log10 of the concentration in molar units; reply with that number alone.

Need pKd, item `CO[C@@H]1[C@H](NCCOCCOCCOCCNC(=O)CCC2=[N+]3C(=Cc4c(C)cc(C)n4[B-]3(F)F)C=C2)C[C@H]2O[C@]1(C)n1c3ccccc3c3c4c(c5c6ccccc6n2c5c31)C(=O)NC4` 6.78

Param item = `CO[C@@H]1[C@H](N(C)CCOCCOCCOCCNC(=O)CCC2=[N+]3C(=Cc4c(C)cc(C)n4[B-]3(F)F)C=C2)C[C@H]2O[C@]1(C)n1c3ccccc3c3c4c(c5c6ccccc6n2c5c31)C(=O)NC4` ; retrieve measured pKd. 6.59

====

Target: Death-associated protein kinase 1 (Homo sapiens, UniProt P53355)
Sequence (P53355 whole entry, the tested form may be a part): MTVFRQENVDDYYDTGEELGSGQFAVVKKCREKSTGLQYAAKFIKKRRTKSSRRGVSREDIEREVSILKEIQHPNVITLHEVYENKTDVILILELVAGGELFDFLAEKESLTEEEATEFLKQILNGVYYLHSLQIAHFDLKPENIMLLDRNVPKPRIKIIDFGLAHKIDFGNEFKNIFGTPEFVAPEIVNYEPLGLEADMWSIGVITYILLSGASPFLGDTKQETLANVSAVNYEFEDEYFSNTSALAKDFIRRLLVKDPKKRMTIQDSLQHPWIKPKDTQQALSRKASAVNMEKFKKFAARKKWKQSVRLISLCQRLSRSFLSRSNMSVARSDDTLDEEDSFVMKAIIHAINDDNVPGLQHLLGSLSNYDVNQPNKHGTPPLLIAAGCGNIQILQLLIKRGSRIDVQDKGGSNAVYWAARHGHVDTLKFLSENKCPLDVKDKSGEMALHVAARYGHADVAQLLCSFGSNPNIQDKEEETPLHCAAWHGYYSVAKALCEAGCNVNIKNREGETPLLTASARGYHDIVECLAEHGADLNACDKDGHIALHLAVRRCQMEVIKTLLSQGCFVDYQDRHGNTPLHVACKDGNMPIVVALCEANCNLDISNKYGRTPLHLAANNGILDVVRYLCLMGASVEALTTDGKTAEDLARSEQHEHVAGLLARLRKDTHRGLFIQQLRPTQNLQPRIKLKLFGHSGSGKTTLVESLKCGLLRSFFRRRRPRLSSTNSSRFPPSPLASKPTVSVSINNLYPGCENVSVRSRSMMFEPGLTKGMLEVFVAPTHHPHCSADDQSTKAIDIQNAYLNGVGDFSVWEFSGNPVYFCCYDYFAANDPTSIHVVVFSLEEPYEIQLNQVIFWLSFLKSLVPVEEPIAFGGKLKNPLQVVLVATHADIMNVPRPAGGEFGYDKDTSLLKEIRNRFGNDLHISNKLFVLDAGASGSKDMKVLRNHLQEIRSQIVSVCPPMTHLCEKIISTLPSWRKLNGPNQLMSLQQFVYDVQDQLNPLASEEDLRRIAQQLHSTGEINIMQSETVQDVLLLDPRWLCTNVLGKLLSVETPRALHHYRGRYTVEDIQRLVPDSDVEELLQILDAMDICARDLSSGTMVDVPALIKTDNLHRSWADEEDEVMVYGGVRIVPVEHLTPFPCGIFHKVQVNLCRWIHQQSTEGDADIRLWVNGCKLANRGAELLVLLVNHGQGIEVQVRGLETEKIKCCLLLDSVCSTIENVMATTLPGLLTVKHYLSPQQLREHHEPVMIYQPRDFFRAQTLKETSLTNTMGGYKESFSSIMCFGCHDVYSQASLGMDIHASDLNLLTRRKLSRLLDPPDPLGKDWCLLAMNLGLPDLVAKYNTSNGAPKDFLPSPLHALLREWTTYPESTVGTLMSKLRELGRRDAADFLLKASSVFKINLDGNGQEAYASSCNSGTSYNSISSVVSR
Assay: Binding affinity to recombinant full-length N-terminal His-FLAG-GST-tagged DAPK1 (unknown origin) (1 to 289 residues) expressed in baculovirus infected Sf9 insect cells incubated for 1 hr by TR-FRET assay
recorded_metric: Kd (nM)
Your answer is read as nM, so omit the unit and give the number.

compound_smiles	recorded_number
CO[C@@H]1[C@H](NCCOCCOCCOCCNC(=O)CCC2=[N+]3C(=Cc4c(C)cc(C)n4[B-]3(F)F)C=C2)C[C@H]2O[C@]1(C)n1c3ccccc3c3c4c(c5c6ccccc6n2c5c31)C(=O)NC4	69

Quick check: Kd of `CO[C@@H]1[C@H](N(C)CCOCCOCCOCCNC(=O)CCC2=[N+]3C(=Cc4c(C)cc(C)n4[B-]3(F)F)C=C2)C[C@H]2O[C@]1(C)n1c3ccccc3c3c4c(c5c6ccccc6n2c5c31)C(=O)NC4` ? 59

====

Biological target: AP2-associated protein kinase 1 (Homo sapiens, UniProt Q2M2I8)
Test: Binding affinity to recombinant full-length N-terminal His-FLAG-GST-tagged AAK1 (unknown origin) expressed in baculovirus infected Sf9 insect cells incubated for 1 hr by TR-FRET assay
recorded_metric: pKd
Formally, pKd is defined as -log10 of the concentration c, with c in mol/L.

compound_smiles	pKd
CO[C@@H]1[C@H](N(C)CCOCCOCCOCCNC(=O)CCC2=[N+]3C(=Cc4c(C)cc(C)n4[B-]3(F)F)C=C2)C[C@H]2O[C@]1(C)n1c3ccccc3c3c4c(c5c6ccccc6n2c5c31)C(=O)NC4	8.30

Now, please, on to the next compound.
What measured pKd goes with `CO[C@@H]1[C@H](NCCOCCOCCOCCNC(=O)CCC2=[N+]3C(=Cc4c(C)cc(C)n4[B-]3(F)F)C=C2)C[C@H]2O[C@]1(C)n1c3ccccc3c3c4c(c5c6ccccc6n2c5c31)C(=O)NC4` ? 8.22

====

Target: Ribosomal protein S6 kinase beta-1 (Homo sapiens, UniProt P23443, T412E)
Sequence (P23443 whole entry T412E): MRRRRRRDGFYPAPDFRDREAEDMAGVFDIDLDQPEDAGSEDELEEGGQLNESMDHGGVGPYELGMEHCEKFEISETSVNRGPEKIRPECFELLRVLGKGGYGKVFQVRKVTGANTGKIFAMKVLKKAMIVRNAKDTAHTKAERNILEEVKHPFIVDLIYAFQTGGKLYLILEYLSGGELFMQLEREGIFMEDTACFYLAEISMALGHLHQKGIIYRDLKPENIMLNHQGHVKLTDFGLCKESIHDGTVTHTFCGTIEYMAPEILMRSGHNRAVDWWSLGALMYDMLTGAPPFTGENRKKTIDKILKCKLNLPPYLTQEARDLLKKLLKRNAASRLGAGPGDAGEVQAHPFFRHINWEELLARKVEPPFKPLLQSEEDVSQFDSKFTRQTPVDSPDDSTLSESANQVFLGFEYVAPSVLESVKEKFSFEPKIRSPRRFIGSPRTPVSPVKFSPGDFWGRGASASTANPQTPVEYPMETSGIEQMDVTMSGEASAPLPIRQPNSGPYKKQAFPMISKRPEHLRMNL
Assay: Binding affinity to recombinant human full length N-terminal GST-tagged RPS6KB1 T412E mutant expressed in baculovirus expression system using S6K2 peptide as substrate incubated for 1 hr by TR-FRET assay
# Kd listing for each entry below
Write the number in nM without appending the unit.

compound_smiles	assayed_target	unit_label	Kd
CO[C@@H]1[C@H](N(C)CCOCCOCCOCCNC(=O)CCC2=[N+]3C(=Cc4c(C)cc(C)n4[B-]3(F)F)C=C2)C[C@H]2O[C@]1(C)n1c3ccccc3c3c4c(c5c6ccccc6n2c5c31)C(=O)NC4	Ribosomal protein S6 kinase beta-1 (Homo sapiens, UniProt P23443, T412E)	nM	13

Lab note: need Kd with Ribosomal protein S6 kinase beta-1 (Homo sapiens, UniProt P23443, T412E) for entry `CO[C@@H]1[C@H](NCCOCCOCCOCCNC(=O)CCC2=[N+]3C(=Cc4c(C)cc(C)n4[B-]3(F)F)C=C2)C[C@H]2O[C@]1(C)n1c3ccccc3c3c4c(c5c6ccccc6n2c5c31)C(=O)NC4` , please look it up. 40

====

Measured Kd, listed per entry for reference.
Molecular target: Maternal embryonic leucine zipper kinase (Homo sapiens, UniProt Q14680)
Sequence (Q14680 whole entry, the tested form may be a part): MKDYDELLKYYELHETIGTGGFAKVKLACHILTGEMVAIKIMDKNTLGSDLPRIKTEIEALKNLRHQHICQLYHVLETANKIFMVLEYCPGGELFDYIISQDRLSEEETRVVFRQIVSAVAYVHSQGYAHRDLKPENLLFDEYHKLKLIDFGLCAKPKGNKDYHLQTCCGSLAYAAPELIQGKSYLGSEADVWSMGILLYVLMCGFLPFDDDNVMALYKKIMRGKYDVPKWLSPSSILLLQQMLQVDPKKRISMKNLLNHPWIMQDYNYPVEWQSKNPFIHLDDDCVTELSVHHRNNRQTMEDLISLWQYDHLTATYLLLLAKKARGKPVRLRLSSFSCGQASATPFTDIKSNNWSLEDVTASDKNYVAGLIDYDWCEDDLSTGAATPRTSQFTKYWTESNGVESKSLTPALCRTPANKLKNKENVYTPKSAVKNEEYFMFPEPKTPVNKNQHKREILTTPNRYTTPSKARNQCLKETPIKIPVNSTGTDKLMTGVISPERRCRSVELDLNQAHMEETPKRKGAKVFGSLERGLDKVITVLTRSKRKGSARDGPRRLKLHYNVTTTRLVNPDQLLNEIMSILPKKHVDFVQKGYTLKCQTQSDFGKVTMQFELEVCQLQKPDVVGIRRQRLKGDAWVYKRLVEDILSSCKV
Assay: Binding affinity to recombinant full-length N-terminal His-FLAG-GST-tagged MELK (unknown origin) (1 to 493 residues) expressed in baculovirus infected Sf9 insect cells incubated for 1 hr by TR-FRET assay
API: value field is a number in nM; no unit string.

compound_smiles	recorded_number
CO[C@@H]1[C@H](N(C)CCOCCOCCOCCNC(=O)CCC2=[N+]3C(=Cc4c(C)cc(C)n4[B-]3(F)F)C=C2)C[C@H]2O[C@]1(C)n1c3ccccc3c3c4c(c5c6ccccc6n2c5c31)C(=O)NC4	41

Attention now shifts to the item below.
Any idea what Kd came out for `CO[C@@H]1[C@H](NCCOCCOCCOCCNC(=O)CCC2=[N+]3C(=Cc4c(C)cc(C)n4[B-]3(F)F)C=C2)C[C@H]2O[C@]1(C)n1c3ccccc3c3c4c(c5c6ccccc6n2c5c31)C(=O)NC4` on Maternal embryonic leucine zipper kinase (Homo sapiens, UniProt Q14680)? 50

====

Target: Tyrosine-protein kinase Fyn (Homo sapiens, UniProt P06241)
Sequence (P06241 whole entry): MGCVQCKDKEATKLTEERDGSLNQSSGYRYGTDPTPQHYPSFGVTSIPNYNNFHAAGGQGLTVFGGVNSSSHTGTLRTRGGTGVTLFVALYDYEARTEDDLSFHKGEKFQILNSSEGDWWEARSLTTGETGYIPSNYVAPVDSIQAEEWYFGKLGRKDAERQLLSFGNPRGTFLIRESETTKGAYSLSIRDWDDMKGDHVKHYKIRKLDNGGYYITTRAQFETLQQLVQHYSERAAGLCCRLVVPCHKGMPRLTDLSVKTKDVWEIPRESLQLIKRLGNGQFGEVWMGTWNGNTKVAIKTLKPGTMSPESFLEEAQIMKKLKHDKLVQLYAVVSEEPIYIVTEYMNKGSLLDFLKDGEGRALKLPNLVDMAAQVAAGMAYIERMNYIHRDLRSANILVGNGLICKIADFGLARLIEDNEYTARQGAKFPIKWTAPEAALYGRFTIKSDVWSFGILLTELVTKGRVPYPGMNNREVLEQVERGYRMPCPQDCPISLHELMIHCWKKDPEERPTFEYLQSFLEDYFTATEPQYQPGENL
Assay: Binding affinity to recombinant full-length N-terminal His-FLAG-tagged FYN (unknown origin) expressed in baculovirus infected Sf9 insect cells incubated for 1 hr by TR-FRET assay
recorded_metric: Kd (nM)
Reply numerically in nM, unit not repeated.

compound_smiles	assayed_target	unit_label	recorded_number
CO[C@@H]1[C@H](N(C)CCOCCOCCOCCNC(=O)CCC2=[N+]3C(=Cc4c(C)cc(C)n4[B-]3(F)F)C=C2)C[C@H]2O[C@]1(C)n1c3ccccc3c3c4c(c5c6ccccc6n2c5c31)C(=O)NC4	Tyrosine-protein kinase Fyn (Homo sapiens, UniProt P06241)	nM	322

Could you now look at the following compound, please?
Give its Kd value. Item: `CO[C@@H]1[C@H](NCCOCCOCCOCCNC(=O)CCC2=[N+]3C(=Cc4c(C)cc(C)n4[B-]3(F)F)C=C2)C[C@H]2O[C@]1(C)n1c3ccccc3c3c4c(c5c6ccccc6n2c5c31)C(=O)NC4` 267

====

Biological target: Mitogen-activated protein kinase 10 (Homo sapiens)
Sequence (P53779 whole entry): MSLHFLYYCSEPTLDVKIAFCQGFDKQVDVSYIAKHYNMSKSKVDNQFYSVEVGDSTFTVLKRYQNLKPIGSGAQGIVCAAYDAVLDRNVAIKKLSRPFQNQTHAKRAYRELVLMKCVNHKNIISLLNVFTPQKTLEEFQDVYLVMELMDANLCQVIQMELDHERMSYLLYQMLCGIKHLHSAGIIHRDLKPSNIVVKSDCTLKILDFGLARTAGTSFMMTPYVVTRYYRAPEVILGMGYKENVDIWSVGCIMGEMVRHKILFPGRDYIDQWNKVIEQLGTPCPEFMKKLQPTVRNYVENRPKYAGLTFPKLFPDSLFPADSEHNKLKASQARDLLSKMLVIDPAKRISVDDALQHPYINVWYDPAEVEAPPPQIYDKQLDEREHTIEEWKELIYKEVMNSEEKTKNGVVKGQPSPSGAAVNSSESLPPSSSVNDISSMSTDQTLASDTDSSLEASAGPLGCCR
Assay: Binding affinity to recombinant full-length N-terminal His-FLAG-GST-tagged MAPK10 (unknown origin) expressed in baculovirus infected Sf9 insect cells incubated for 1 hr by TR-FRET assay
recorded_metric: Kd (nM)
Answer with a number only, understood to be in nM.

compound_smiles	assayed_target	Kd [nM]
CO[C@@H]1[C@H](NCCOCCOCCOCCNC(=O)CCC2=[N+]3C(=Cc4c(C)cc(C)n4[B-]3(F)F)C=C2)C[C@H]2O[C@]1(C)n1c3ccccc3c3c4c(c5c6ccccc6n2c5c31)C(=O)NC4	Mitogen-activated protein kinase 10 (Homo sapiens)	315

Pending compound:
Give the reported Kd for `CO[C@@H]1[C@H](N(C)CCOCCOCCOCCNC(=O)CCC2=[N+]3C(=Cc4c(C)cc(C)n4[B-]3(F)F)C=C2)C[C@H]2O[C@]1(C)n1c3ccccc3c3c4c(c5c6ccccc6n2c5c31)C(=O)NC4` (system: Mitogen-activated protein kinase 10 (Homo sapiens)). 245

====

Molecular target: Serine/threonine-protein kinase 3 (Homo sapiens, UniProt Q13188)
Sequence (Q13188 whole entry): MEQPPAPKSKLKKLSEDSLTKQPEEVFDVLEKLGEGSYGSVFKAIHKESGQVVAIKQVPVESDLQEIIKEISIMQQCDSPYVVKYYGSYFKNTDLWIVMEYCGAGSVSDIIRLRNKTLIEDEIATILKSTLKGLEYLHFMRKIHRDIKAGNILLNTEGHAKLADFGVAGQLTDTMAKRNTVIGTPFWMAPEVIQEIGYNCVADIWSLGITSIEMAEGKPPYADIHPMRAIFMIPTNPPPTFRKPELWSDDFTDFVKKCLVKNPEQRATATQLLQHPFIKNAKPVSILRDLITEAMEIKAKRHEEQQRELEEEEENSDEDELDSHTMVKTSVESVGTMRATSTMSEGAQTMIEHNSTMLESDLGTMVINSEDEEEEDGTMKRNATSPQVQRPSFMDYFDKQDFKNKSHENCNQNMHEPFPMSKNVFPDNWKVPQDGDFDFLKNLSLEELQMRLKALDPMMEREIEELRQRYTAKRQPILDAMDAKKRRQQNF
Test: Binding affinity to recombinant full-length N-terminal His-FLAG-GST-tagged STK3 (unknown origin) expressed in baculovirus infected Sf9 insect cells incubated for 1 hr by TR-FRET assay
recorded_metric: Kd (nM)
Give a bare numeral; the unit nM is implied.

compound_smiles	Kd / nM
CO[C@@H]1[C@H](N(C)CCOCCOCCOCCNC(=O)CCC2=[N+]3C(=Cc4c(C)cc(C)n4[B-]3(F)F)C=C2)C[C@H]2O[C@]1(C)n1c3ccccc3c3c4c(c5c6ccccc6n2c5c31)C(=O)NC4	3

Pending compound:
Which Kd value belongs to `CO[C@@H]1[C@H](NCCOCCOCCOCCNC(=O)CCC2=[N+]3C(=Cc4c(C)cc(C)n4[B-]3(F)F)C=C2)C[C@H]2O[C@]1(C)n1c3ccccc3c3c4c(c5c6ccccc6n2c5c31)C(=O)NC4` ? 6
